target: UniProtKB Q9Y5Y6; test: Assay for inhibition of matriptase (fluorogenic substrate Boc-Gln-Ala-Arg-AMC); type: biochemical; settings: residual matriptase activity in presence of test compound; hydrolysis of Boc-Gln-Ala-Arg-AMC; 10 μM for initial screening per method
Sequence (Q9Y5Y6 615-855 limits assumed, other chains not shown): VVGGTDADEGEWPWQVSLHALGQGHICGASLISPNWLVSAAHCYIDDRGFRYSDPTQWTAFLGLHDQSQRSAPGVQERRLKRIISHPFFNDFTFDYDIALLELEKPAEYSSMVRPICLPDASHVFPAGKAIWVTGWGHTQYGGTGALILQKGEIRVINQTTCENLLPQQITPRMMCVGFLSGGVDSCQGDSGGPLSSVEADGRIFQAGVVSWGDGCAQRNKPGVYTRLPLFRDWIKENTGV
READOUT_LABEL: Velocity (FU/min)
The reply should consist of the numeric value with the unit placed after it.

Field: example entries. Status: answers known.
C[C@@H]1C(=O)N[C@H](Cc2ccc(C(=N)N)cc2)C(=O)NC/C=C/c2cccc(c2)OCCN[C@@H](C2CC2)C(=O)N1C [Compound 482] = 2500 FU/min
C[C@@H]1CN[C@@H](C2CC2)C(=O)N(C)[C@H](C)C(=O)N[C@H](Cc2ccc(C(=N)N)cc2)C(=O)NCCCc2ccccc2O1 [Compound 459] = 140 FU/min

Now, please, on to the next compound.
*Q* Using the record for C[C@@H]1CN[C@@H](C2CC2)C(=O)N(C)[C@H](C)C(=O)N[C@H](Cc2ccc(C(N)=O)cc2)C(=O)NCCCc2ccccc2O1 [Compound 498] , state its measured Velocity (FU/min).
*A* 580 FU/min
